Tested on: L1210 leukemia ip in BDF1 mice, survival T/C
Assay: NCI In Vivo Anticancer Drug Screen. Data for tumor model L1210 Leukemia (intraperitoneal) in B6D2F1 (BDF1) mice
Settings: endpoint: mean survival time; dose: 200.0 mg/kg/injection; schedule: Q01DX001 (ip); vehicle: Klucel (hydroxypropylcellulose) (HPC)
Experimental: The antitumor activity of compounds was measured in mice bearing transplantable tumors. Survival or tumor size were measured and the results are expressed as the measurement made in the treated group (T) divided by the measurement made in the vehicle treated control group (C). The tumor model used in this assay is L1210 Leukemia (intraperitoneal) in B6D2F1 (BDF1) mice
Inconclusive results and toxic doses are left out. Rule as the data show it: active = T/C of 150% or more; inactive = T/C below 125%.
Possible outcomes: active, inactive

| COMPOUND | ANSWER_LABEL |
| --- | --- |
| CC1(C)C2CC3C(CCC4C(=O)OC(=O)C43)C1C2 (stereo unspecified) | inactive |
| CSc1ncnc2c1ncn2NCC1OC(C)OCC1O (stereo unspecified) | inactive |
| CCOC(=O)c1c(C)cn2c1OC(C)CC2(C)C (stereo unspecified) | inactive |
| O=C(Nc1cccc(C(F)(F)F)c1)N(CCO)Cc1ccccc1 | inactive |
| Cc1ccc(NC(=O)CCc2ccc(N3C(N)=NC(N)=NC3(C)C)cc2)cc1S(=O)(=O)F | inactive |
| CCCC1COCC(CC)/C1=N\Nc1ccc([N+](=O)[O-])cc1[N+](=O)[O-] (stereo unspecified) | inactive |
| CN(C)c1ccc(C(=O)CCCN2CCC(O)(c3ccc(Cl)cc3)CC2)cc1 | inactive |
| CCCCCCCCCCCCCCCCCC(=O)CCCCCCCCCCCCCCCCC | inactive |
| O=C1CN=C(c2ccccn2)c2cc(Br)ccc2N1 | inactive |
| O=C(COc1ccc(Cl)cc1C(=O)O)NCc1cccc(NC(=O)Nc2ccc(S(=O)(=O)F)cc2)c1 | inactive |
| CC(=O)Oc1c2n(c(=O)c3cocc13)Cc1cc3ccccc3nc1-2 | inactive |
| C/C(=N\NC(=S)Nc1cc(Cl)ccc1Cl)c1cc([N+](=O)[O-])c(O)cc1O | inactive |
| COc1ccc2c(c1)CCC1C2=CCC2C(=O)CCC(=O)C21 (stereo unspecified) | inactive |
| NC(=O)c1[nH]cnc1N1CC[N+](Cc2ccccc2)=N1 | inactive |
| O=C(c1ccccc1)c1ccn[nH]1 | inactive |
| CCCCCCCCCCCCCCCOc1ccc2ccccc2c1 | active |
| CC1CC(CC(=O)O)(C(=O)O)CC(C)O1 (stereo unspecified) | inactive |
| COc1ccc(C(=O)c2ccc([N+](=O)[O-])cc2)c(OC)c1 | inactive |
| O=S(=O)(OC1CC2C=CC1C21CC1)c1ccc(Br)cc1 (stereo unspecified) | inactive |
| CC(C)(C)C1=CC(=O)C(N2C3C4CCC(C4)C32)=C(N2C3C4CCC(C4)C32)C1=O (stereo unspecified) | inactive |
| O=C(NC(=O)C(Cl)Cl)OC1c2cc(Cl)ccc2-c2c(Cl)cc(Cl)cc21 (stereo unspecified) | inactive |

Origin of the recorded values: PubChem BioAssay AID248
